# Tested on: α7 integrin promoter
# ASSAY_PROTOCOL: muscle cell-based assay: α7βgal+/− myoblasts/myotubes, LacZ reporter, β-galactosidase cleavage of FDG
# Set-up: species or system mouse
# TEST_PARAMETERS: Myotubes; compound at 5 uM
# Description: An α7 integrin null mouse was produced in which exon 1 of the gene encoding the α7 integrin was replaced by the LacZ reporter. […] A primary myoblast cell line (designated α7βgal^+/−) isolated from 10 day old α7^+/− pups were analyzed for the ability of β-galactosidase to report α7 integrin expression. α7βgal^+/− myoblasts were differentiated and subjected to X-gal staining and western analysis (FIGS. 1A and 1B). […]
MEASUREMENT_KIND: Results in a α7+/− β-galactosidase assay, Myotubes, 5 uM

> print(dat)
                                   compound  value.observed
1  O=C(O)C(Cc1ccc(O)cc1)N1C(=O)c2ccccc2C1=O (stereo not drawn) [drawing 411]          0.2927
2  COc1cccc(CN2CCN(Cc3ccco3)CC2)c1.O=C(O)C(=O)O [drawing 322]        0.003264
3  Cc1cccc(Sc2nc(-c3ccccc3)ccc2C#N)c1 [drawing 390]         0.02472
4  c1ccc(-c2cc(-c3nc4ccccc4[nH]3)c3ccccc3n2)cc1 [drawing 432]         −0.2722
5  CC(=O)Nc1ccc(NC(=O)C/C(C)=N/NC(=O)COc2cc(C)c(Br)cc2Br)cc1 [drawing 449]         −0.2507
6  CCCc1nnc(SCC(=O)NC2CCCC2)n1CCOC [drawing 467]         −0.3088
7  COc1cc(NC(=O)OCc2ccccc2)c2ncccc2c1 [drawing 349]         −0.1098
8  N#C/C(=C/c1ccc(N2CCOCC2)o1)C(=O)Nc1ccccc1 [drawing 437]         −0.1378
9  C=CCOc1ccc(C(=O)/C=C2\C(=O)Nc3ccccc32)cc1 [drawing 353]        −0.09703
